remaining activity at 5 µM for assorted compounds
target-under-test: P2X2R (Homo sapiens, UniProt Q9UBL9)
Construct: expressed in transfected cells; host or cells: HEK-293
Sequence (Q9UBL9 whole entry): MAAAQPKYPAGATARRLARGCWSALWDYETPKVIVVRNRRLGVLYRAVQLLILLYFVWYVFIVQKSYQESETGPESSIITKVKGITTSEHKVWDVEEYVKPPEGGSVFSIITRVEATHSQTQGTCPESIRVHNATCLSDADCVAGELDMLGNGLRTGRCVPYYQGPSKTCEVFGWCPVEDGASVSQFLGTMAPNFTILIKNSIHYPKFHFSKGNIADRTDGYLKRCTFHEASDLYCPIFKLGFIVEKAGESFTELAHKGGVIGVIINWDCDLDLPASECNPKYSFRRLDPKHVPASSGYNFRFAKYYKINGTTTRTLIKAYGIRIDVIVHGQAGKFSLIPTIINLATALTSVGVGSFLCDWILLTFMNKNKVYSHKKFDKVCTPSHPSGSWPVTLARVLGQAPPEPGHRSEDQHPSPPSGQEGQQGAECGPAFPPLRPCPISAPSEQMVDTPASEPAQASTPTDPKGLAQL
assay-details: Receptor-mediated calcium entrance assay (Calcium Assay), P2X2R
Assay type: cell-based
test-context: compound at 5 μM, read-out: Percentage of activity remains in the presence of the compound at 5 μM, P2X2R (Calcium Assay)
Give just the number in %; leave the unit off.

compound	remaining activity at 5 µM (%)
O=C(NCCc1ccccc1)C1CCN(S(=O)(=O)c2ccc(N3CCOCC3)cc2)CC1	57.7
O=C(CCc1ccccc1)N1CCN(S(=O)(=O)c2ccc(N3CCOCC3)cc2)CC1	47.8
NC(=O)c1cc(Br)cc(N2CCOCC2)c1	50.7

Return remaining activity at 5 µM for the following compound: O=C(CCc1ccccc1)NC1CCCN(S(=O)(=O)c2ccc(N3CCCC3)cc2)C1 (stereo not shown)
67.4
